quantity: melting point

CC(=O)NC[C@H]1CN(c2ccc(C(=O)c3cc(C#N)c4ccccn34)cc2)C(=O)O1 : 255 to 257 °C
CC(C)(C)OC(=O)N[C@@]1(C(=O)OC(C)(C)C)CC(=O)[C@H]2[C@H](C(=O)OC(C)(C)C)[C@H]21 : 144 to 146 °C
CCn1c2ccccc2c2cc(I)ccc21 : 78 to 80 °C

Incoming: So what does the record say about melting point for `CSCc1c(C(F)(F)F)nn(C)c1O` ?
Outgoing: 123 to 124 °C

Incoming: So what does the record say about melting point for `COc1cccc(-c2n[nH]c3c2Cc2ccccc2-3)c1` ?
Outgoing: 172 to 174 °C

Incoming: So what does the record say about melting point for `c1cncc(-n2cnnn2)c1` ?
Outgoing: 74 to 76 °C
